meta.source: PubChem BioAssay AID1080

# assay notes: cAMP induction in EP2, EP4, beta2-AR and parental cells, confirmation, counter-screen for EP2 modulator project, cell-based, five parallel assays, C6 glioma, HEK293 (AID 1080)
# experimental conditions: cAMP HTRF induction, measured here: beta2 adrenergic HEK293 counter-screen
About 640 (49%) of roughly 1,300 compounds were called active. The set was probably picked from earlier hits. Not all results are given here.

# compound, cAMP induction / %
measured = [
    ("O=c1c2ccccc2nc2n1C1(CCCCC1)Cc1ccccc1-2", -1.27),
    ("CC1(C)CC2CC(C)(CN2c2ncnc3ccc(Br)cc23)C1 (stereo unspecified)", -0.287),
    ("CCOC(=O)C(CC)Sc1ncnc2c1nnn2-c1ccc(F)cc1 (stereo unspecified)", 17),
    ("CCOc1ccc(NC(=O)CSc2ncnc3c2sc2ccccc23)cc1", 81.1),
    ("CCCCCn1c(SCCC(C)C)nc2c1c(=O)[nH]c(=O)n2C", -18.1),
    ("CC(C)(C)c1nc2ccccc2c(=O)n1N1C(=O)c2ccccc2C1=O", 4.41),
]

---

# assay notes: cAMP induction in EP2, EP4, beta2-AR and parental cells, confirmation, counter-screen for EP2 modulator project, cell-based, five parallel assays, C6 glioma, HEK293 (AID 1080)
# experimental conditions: cAMP HTRF induction, measured here: beta2 adrenergic HEK293 counter-screen
Screen size: about 1,300 compounds; about 640 (49%) were called active. The set was probably picked from earlier hits. Not all results are given here.
Below, each entry is listed alongside its reported cAMP induction.
property name: cAMP induction (%)

# compound, recorded value
measured = [
    ("CCc1ccccc1NC(=O)/C(=C/c1ccccc1)c1ccccc1", 34),
    ("COc1ccc(C)c(Cn2c(-c3nonc3N)nc3ccccc32)c1", -6.52),
    ("Cc1ccc(C(=O)c2c(NC(=O)c3ccncc3)sc3c2CCCC3)cc1", -17.1),
    ("CC[C@@H]1Cc2cc(O)ccc2C2=C1c1ccc(O)cc1C[C@H]2CC", -11.7),
    ("CCC(C)(C)c1ccc(OCC(=O)N(C)C)c(C(C)(C)CC)c1", -18.7),
    ("CCCCOc1ccc(-c2nnc(-c3ccco3)o2)cc1", -7.34),
    ("O=C(Nc1ccccc1N1CCCCC1)c1ccc2nccnc2c1", -12.3),
    ("Cc1ccccc1-c1n[nH]c(=S)n1/N=C/c1ccc(-c2ccccc2Br)o1", 14.3),
    ("CCCc1cc(-c2n[nH]c(=S)n2Cc2ccccc2)cs1", -7.59),
    ("Cc1cc(C#N)c(SCC(N)=O)nc1-c1ccc(F)cc1", 7.22),
    ("CCN1CCN(c2c(Cl)cccc2NC(=O)c2ccc(Br)o2)CC1", -6.35),
    ("O=C(COC(=O)c1ccccc1)Nc1ccccc1Sc1ccccc1", -16.3),
    ("COC(=O)c1sc2[nH]c(=S)n(N)c(=O)c2c1C", 67.4),
    ("COc1c2c(cc3occ(-c4ccc5c(c4)OCO5)c(=O)c13)OC(C)(C)C=C2", -13.4),
    ("O=c1c2ccccc2c(-c2ccc(Br)cc2)nn1Cc1ccccc1", 8.28),
    ("Cc1ccc(-n2c(SCC(=O)Nc3ccc4c(c3)OCO4)nnc2-c2ccoc2C)cc1", -0.777),
    ("Cc1ccccc1C(=O)Nc1ccccc1Sc1ccccc1", -0.06),
    ("Cc1cc(NC(=O)CN2CCCC(C)C2)n(-c2nc3ccccc3s2)n1 (configuration not stated)", 6.5),
    ("FC(F)(F)c1cccc(-c2cc3ccccc3nc2N2CCCC2)c1", -13),
    ("O=C(Nc1ccccc1N1CCCCC1)c1cccc(F)c1", -8.46),
    ("CC1(C)Cc2nc3sc4c(SCC(=O)NC(c5ccccc5)c5ccccc5)ncnc4c3cc2CO1", 71.7),
    ("CC1CCN(c2nc3c(c(=O)[nH]c(=O)n3C)n2CCCc2ccccc2)CC1", -2.72),
]
